- Test system: EKVX NSCLC
- Method Notes: NCI-60 one-dose screen, 48 h (100 = growth as untreated, 0 = no growth, -100 = all killed)
- Test Context: 10 µM unless noted
The panel holds about 83,000 compounds, 20% with a hit somewhere; the sample as a whole holds those more often. The source made the active and inactive calls. How the source made its calls: active means growth percent below 10; inactive means the rest.
Readout: growth

# Compound, Assayed System, growth
records = [
    ("NC(=O)c1c(Br)n(C2OC(CO)C(O)C2O)c2ncnc(N)c12 (stereo unspecified)", "EKVX NSCLC", "-2.28% (active)"),
    ("c1ccc(COc2ccc3[nH]cc(CCN(Cc4ccccc4)Cc4ccccc4)c3c2)cc1", "EKVX NSCLC", "82.8% (inactive)"),
    ("N#CC1(C#N)C(c2ccc(N(CCCl)CCCl)cc2)OC23CCCCC2C1(C#N)C(=N)O3 (stereo unspecified)", "EKVX NSCLC", "108% (inactive)"),
    ("C[N+]12CN3CN(CN(C3)C1)C2", "EKVX NSCLC", "96.4% (inactive)"),
    ("C=C(C)[C@@]12OC3(/C=C/C=C/CCCCC)O[C@@H]1[C@@H]1[C@@H]4O[C@]4(CO)[C@@H](O)[C@]4(O)C(=O)C(C)=C[C@H]4[C@@]1(O3)[C@H](C)[C@H]2OC(=O)c1ccccc1", "EKVX NSCLC", "67.4% (inactive)"),
]

Field: growth. Fill in for each record below.
1. CCCCCCC(=O)NC1=C(N2CC2)C(=O)C(NC(=O)CCCCCC)=C(N2CC2)C1=O
2. O=C(Nc1ccc(Br)cc1)c1cc(Br)cc(Br)c1O
3. c1cc2c(c3c1CCNC3)OCO2
4. COc1cc2c(cc1OCCCn1c(-c3ccccn3)nc3ccccc31)N=C[C@@H]1CCCN1C2=O
5. CC[C@@H]1[C@@H](C)O[C@@](O)([C@@H](C)[C@H](O)[C@H](C)[C@H]2OC(=O)/C=C/C=C/[C@H](C)[C@@H]([C@@H](C)[C@@H](O)[C@H](C)[C@@]3(O)C[C@@H](O[C@H]4C[C@@H](O)[C@H](O)C(C)O4)[C@H](CC)[C@@H](C)O3)OC(=O)/C=C/C=C/[C@@H]2C)C[C@H]1O[C@@H]1C[C@@H](O)[C@H](O)C(C)O1 (stereo partly specified)

// result
["78.3% (inactive)", "10.7% (inactive)", "95.6% (inactive)", "43.3% (inactive)", "-88.6% (active)"]

----------
Hi there, I'd appreciate the recorded growth for every entry that follows.
- Test system: ACHN renal
- Method Notes: NCI-60 one-dose screen, 48 h (100 = growth as untreated, 0 = no growth, -100 = all killed)
- Test Context: 10 µM unless noted
About 83,000 compounds went through this panel and 20% of them were active in at least one assay; those are over-represented in the sample as a whole.
Answers are plain numbers, in %.

# Compound, growth (%)
records = [
    ("COc1cc([C@@H]2c3cc4c(cc3[C@H](OC(C)=O)[C@H]3COC(=O)[C@H]23)OCO4)cc(OC)c1OC", 28.7),
    ("Cc1c(NS(=O)(=O)c2ccccc2)ccc([N+](=O)[O-])c1Cl", 69.7),
    ("CCC[CH2][Sn]([CH2]CCC)([CH2]CCC)[O]c1ccc(Cl)cc1Cl", -69.5),
    ("CC(=O)O[C@H]1C(=O)[C@@]2(C)[C@H]([C@H](OC(=O)c3ccccc3)[C@]3(O)C[C@H](OC(=O)[C@H](OC(=O)OC[C@H]4COC(C)(C)O4)[C@@H](NC(=O)c4ccccc4)c4ccccc4)C(C)=C1C3(C)C)[C@]1(OC(C)=O)CO[C@@H]1C[C@@H]2O", 34.5),
    ("CCCCCCCCCCCCNC(c1ccccc1)C(O)c1ccccc1 (configuration not stated)", 67.4),
]

Field: growth. Fill in for each record below.
1. Fc1c[c-]c(-c2ccccn2)c(F)c1.[CH3-].[Pt+2].c1ccc([PH+](c2ccccc2)c2ccccn2)cc1
2. COc1ccc(S(=O)(=O)Nc2c(/C=C\c3cc(OC)c(OC)c(OC)c3)ccc(OC)c2O)cc1OC

// result
-80.4
29.6
